Kindly supply the reported IC50 values for the records listed here.
- Assay: Cytotoxicity against human MM1R cells assessed as growth inhibition after 24 hrs by MTT assay
- Assay type: functional, cell-based
- Reported conditions: MM.1R
Residues, ends and D or L forms follow the SMILES beside them. *: point of attachment. Cbz = O=C(OCc1ccccc1)*; NHNH2 = NN*
Numbers only, in µM.

Lab note: each compound below needs its IC50 filled in.
1. CC(C)C[C@H](NC(=O)[C@H](CO)NC(=O)OCc1ccccc1)C(=O)N[C@@H](Cc1ccc(O)cc1)C(=O)NN (Cbz-Ser-Leu-Tyr-NHNH2)
2. COC(=O)[C@H](CC(C)C)NC(=O)[C@H](Cc1ccccc1)NC(=O)[C@H](CO)NC(=O)OCc1ccccc1 (Cbz-Ser-Phe-Leu-OMe)
3. CC(C)CC(NC(=O)C(CO)NC(=O)OCc1ccccc1)C(=O)NC(Cc1ccc(O)cc1)C(N)=O (stereo not drawn) (Cbz-Ser-Leu-Tyr-NH2; configuration not given here)
4. COC(=O)[C@H](Cc1ccc(O)cc1)NC(=O)[C@H](CC(C)C)NC(=O)[C@H](CO)NC(=O)OCc1ccccc1 (Cbz-Ser-Leu-Tyr-OMe)
5. CC(C)C[C@@H](C=O)NC(=O)[C@H](CC(C)C)NC(=O)[C@H](CC(C)C)NC(=O)OCc1ccccc1 [MG-132] (Cbz-Leu-Leu-Leu-aldehyde)

A:
[29.8, 17.6, 28.5, 22.3, 12.3]

Lab note: each compound below needs its IC50 filled in.
1. COC(=O)[C@H](CO)NC(=O)[C@H](CC(C)C)NC(=O)[C@H](CC(C)C)NC(=O)OCc1ccccc1 (Cbz-Leu-Leu-Ser-OMe)
2. CN/C(=N\CCSCc1ccc2ccccc2n1)NS(=O)(=O)c1ccccc1

A:
[16.2, 18.3]
